meta.source: patent US20210380703A1

biological target: T1, biotinylated goat anti-human kappa light chain; assay: ELISA, positive control; also: test concentration or dose not given here
T1 construct: positive control of the ELISA
observable: optical density (OD)

1) 374_H01 (antibody, V domains shown, Group III) VH: EVQLLESGGGLVQPGGSLRLSCAASGFTFDSYSMNWVRQAPGKGLEWVAGINYNGGYTSYADSVKGRFTISRDNSKNTLYLQMNSLRAEDTAVYYCARGANWHDTHLDYWGQGTLVTVSS VL: DIQMTQSPSSLSASVGDRVTITCRASQSILSYLNWYQQKPGKAPKLVIYAATSLASGVPSRFSGSGSGTDFTLTISSLQPEDFATYYCQQSYENPLTFGGGTKVEIK
3.07
2) 373_G08 (antibody, V domains shown, Group III) VH: EVQLLESGGGLVQPGGSLRLSCAASGFTFDSYSMNWVRQAPGKGLEWVSNINYNGGYTSYADSVKGRFTISRDNSKNTLYLQMNSLRAEDTAVYYCARGANWHDTALDYWGQGTLVTVSS VL: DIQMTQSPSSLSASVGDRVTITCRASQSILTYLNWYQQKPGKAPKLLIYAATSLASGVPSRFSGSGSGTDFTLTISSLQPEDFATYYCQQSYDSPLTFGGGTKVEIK
3.28
3) 368_H02 (antibody, V domains shown, Group III) VH: EVQLLESGGGLVQPGGSLRLSCAASGFTFSSYGMNWVRQAPGKGLEWVAGINYNSGYTSYADSVKGRFTISRDNSKNTLYLQMNSLRAEDTAVYYCARGANWHDTALDYWGQGTLVTVSS VL: DIQMTQSPSSLSASVGDRVTITCRASQSIVTYLNWYQQKPGKAPKLVIYAATSRASGVPSRFSGSGSGTDFTLTISSLQPEDFATYYCQQSYESPLTFGGGTKVEIK
3.58
